The origin of these recorded values is ChEMBL document CHEMBL3875225.

# procedure_summary: Antiproliferative activity against human A549 cells after 48 hrs by MTT assay
# Format: functional, cell-based
# condition_context: Homo sapiens, A549, 48 h
Can you tell me IC50 for the items I'm about to list?

Notebook: COc1ccc(-c2cc(CO)c3cc4c(cc3n2)OCCO4)cc1OC , IC50 read as 82.1 µM

Notebook: O=C(O)c1cc(-c2ccc(O)cc2)nc2cc3c(cc12)OCCO3 , IC50 read as > 100 µM

Notebook: C=CCNC1=C2C[C@@H](C)C[C@H](OC)[C@H](O)[C@@H](C)/C=C(\C)[C@H](OC(N)=O)[C@@H](OC)/C=C\C=C(/C)C(=O)NC(=CC1=O)C2=O , IC50 read as 0.286 µM

Notebook: COc1ccc(-c2cc(C(=O)O)c3cc4c(cc3n2)OCCO4)cc1 , IC50 read as > 100 µM

Notebook: Cc1ccc(-c2cc(C(=O)O)c3cc4c(cc3n2)OCCO4)cc1 , IC50 read as > 100 µM

Notebook: O=C(O)c1cc(-c2cccc(O)c2)nc2cc3c(cc12)OCCO3 , IC50 read as > 100 µM

Notebook: O=C(O)c1cc(-c2ccccc2)nc2cc3c(cc12)OCCO3 , IC50 read as > 100 µM

Notebook: COc1ccc(-c2cc(CO)c3cc4c(cc3n2)OCCO4)cc1 , IC50 read as > 100 µM

Notebook: COc1cc(-c2cc(C(=O)O)c3cc4c(cc3n2)OCCO4)cc(OC)c1OC , IC50 read as > 100 µM

Notebook: COc1ccc(-c2cc(CO)c3cc4c(cc3n2)OCCO4)cc1O , IC50 read as 94.2 µM
